Documented Transient HEK293 rRXFP1 cAMP EC50 across a set of binders
Target: T1, rat RXFP1 (rat, UniProt Q6R6I6 1-758)
T1 sequence (looked up): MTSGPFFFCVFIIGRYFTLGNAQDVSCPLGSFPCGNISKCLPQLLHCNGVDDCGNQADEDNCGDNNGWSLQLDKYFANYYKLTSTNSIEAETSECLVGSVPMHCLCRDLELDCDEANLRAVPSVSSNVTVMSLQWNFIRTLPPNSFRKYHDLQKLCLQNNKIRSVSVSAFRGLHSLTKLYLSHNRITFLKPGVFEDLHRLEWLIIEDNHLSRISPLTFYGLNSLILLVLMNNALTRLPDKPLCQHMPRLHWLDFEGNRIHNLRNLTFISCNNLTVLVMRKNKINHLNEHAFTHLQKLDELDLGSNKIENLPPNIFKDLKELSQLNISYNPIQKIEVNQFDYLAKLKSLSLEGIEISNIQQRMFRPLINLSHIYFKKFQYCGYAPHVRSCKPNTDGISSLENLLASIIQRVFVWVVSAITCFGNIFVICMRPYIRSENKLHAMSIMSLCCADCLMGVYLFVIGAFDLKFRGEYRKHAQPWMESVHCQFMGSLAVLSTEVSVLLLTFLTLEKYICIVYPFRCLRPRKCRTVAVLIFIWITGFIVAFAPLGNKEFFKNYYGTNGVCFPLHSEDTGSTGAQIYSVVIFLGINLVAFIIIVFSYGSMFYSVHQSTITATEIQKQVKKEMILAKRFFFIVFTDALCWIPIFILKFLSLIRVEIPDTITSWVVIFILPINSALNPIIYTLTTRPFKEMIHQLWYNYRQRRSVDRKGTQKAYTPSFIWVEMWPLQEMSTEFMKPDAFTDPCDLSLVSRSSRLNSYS
Assay: cell-based or functional assay

{"columns": ["binder", "Transient HEK293 rRXFP1 cAMP EC50, nM"],
 "data": [
  ["SEQ ID NO: 313 (Fc fusion) DKTHTCPPCPAPEAAGGPSVFLFPPKPKDTLMISRTPEVTCVVVDVSHEDPEVKFNWYVDGVEVHNAKTKPREEQYNSTYRVVSVLTVLHQDWLNGKEYKCKVSNKALAAPIEKTISKAKGQPREPQVYTLPPSRDELTKNQVSLTCLVKGFYPSDIAVEWESNGQPENNYKTTPPVLDSDGSFFLYSKLTVDKSRWQQGNVFSCSVLHEALHSHYTQKSLSLSPGKGGSDSWQEEVIKLCGRELVRAQIAICGKSTGGGEGGGEGGGEGRQLYSALANKCCHVGCTKRSLAQFC", 15.1],
  ["SEQ ID NO: 317 (Fc fusion) DKTHTCPPCPAPEAAGGPSVFLFPPKPKDTLMISRTPEVTCVVVDVSHEDPEVKFNWYVDGVEVHNAKTKPREEQYNSTYRVVSVLTVLHQDWLNGKEYKCKVSNKALAAPIEKTISKAKGQPREPQVYTLPPSRDELTKNQVSLTCLVKGFYPSDIAVEWESNGQPENNYKTTPPVLDSDGSFFLYSKLTVDKSRWQQGNVFSCSVLHEALHSHYTQKSLSLSPGGGSDSWQEEVIKLCGRELVRAQIAICGKSTGGGEGGGEGGGEGRQLYSALANKCCHVGCTKRSLAQFC", 31.2]
]}
